# Tested on: OVCAR-4 ovarian
# test_protocol: NCI tumour cell line growth inhibition, 48 h; in the data active = GI50 below about 0.43 µM; inactive = the rest
Pick one: y for active, n for inactive

Reference set (3 entries):
NC(=S)c1cn(C2OC(CO)C(O)C2O)c2ncnc(N)c12 (centres undefined) | y
O=C(CN1CCN(c2cc3c(cc2F)c(=O)c(C(=O)O)cn3C2CC2)CC1)Nc1ccc(C(=O)/C=C/c2ccccc2)cc1 | n
COc1ccc(C2C3=C(COC3=O)N(CCO)c3cc4c(cc32)CCC4)cc1OC (centres undefined) | n

Next molecule, please.
Ask: Please state the recorded outcome for this molecule: `c1cc[c]([Sn]([O]c2cccc3cccnc23)([c]2ccccc2)[c]2ccccc2)cc1`
Result: y
